Provenance of the data: patent EP4635954A1

molecular target: miR-145; test: Isothermal titration calorimetry (ITC), Nano-ITC; type: binding; conditions: Multiple Sites model, site with nSite 1.8; 50 µM miR-145 in cell, 500 µM ligand in syringe
MEASURED_METRIC: Kd (nM)
Field: numeric (nM). Do not append units.

Please report the recorded Kd for O=C(Cc1ccccc1)Nc1cc2cc[nH]c2cn1 [Compound A-3-6] .
7.54
